Taken from patent US20180305450A1.

Molecular target: T1, recombinant biotinylated human PAR2 extracellular domain (residues 1-75), N-terminal AviTag, C-terminal Flag … (human, UniProt P55085 26-75, biotin on the AviTag (enzymatic biotinylation))
T1 construct: also called Bio-human-PAR2 ECD; human PAR2 ECD; not shown: N-terminal AviTag (Avidity LLC); C-terminal Flag and poly Histidine tags
T1 sequence (P55085 26-75): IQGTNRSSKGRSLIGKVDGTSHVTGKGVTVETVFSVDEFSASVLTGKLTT
Assay: Biacore SPR 25 C, pH 6.0
Here the recorded koff is given for each entry.

[
  {
    "binder": "PaB670128 Fab (Fab, V domains shown, Fab; also called ZZ1RUE-A01) VH: EVQLLESGGGLVQPGGSLRLSCAASGFTFSSYAMNWVRQAPGKGLEWVSTISYHGHHISYADSHHHRFTISRDNSKNTLYLQMNSLRAEDTAVYYCARIHHDPMDVWGQGTLVTVSS VL: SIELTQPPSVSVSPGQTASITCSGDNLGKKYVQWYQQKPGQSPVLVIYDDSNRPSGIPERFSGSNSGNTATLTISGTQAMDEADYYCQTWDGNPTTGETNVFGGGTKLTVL",
    "koff [s⁻¹]": 0.0457
  },
  {
    "binder": "PaB670084 Fab (Fab, V domains shown, Fab; also called ZZ1PXA-A05) VH: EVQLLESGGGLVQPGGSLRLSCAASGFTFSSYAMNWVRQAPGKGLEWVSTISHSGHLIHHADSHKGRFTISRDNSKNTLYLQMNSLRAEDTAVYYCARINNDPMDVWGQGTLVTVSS VL: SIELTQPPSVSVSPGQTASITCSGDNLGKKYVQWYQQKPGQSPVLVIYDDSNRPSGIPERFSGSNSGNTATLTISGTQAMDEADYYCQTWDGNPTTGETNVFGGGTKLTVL",
    "koff [s⁻¹]": 0.00763
  },
  {
    "binder": "PaB670076 Fab (Fab, V domains shown, Fab; also called ZZ1NHH-F09) VH: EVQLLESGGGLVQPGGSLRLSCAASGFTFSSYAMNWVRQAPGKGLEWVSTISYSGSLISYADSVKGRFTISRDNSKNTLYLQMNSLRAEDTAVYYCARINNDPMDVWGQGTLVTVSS VL: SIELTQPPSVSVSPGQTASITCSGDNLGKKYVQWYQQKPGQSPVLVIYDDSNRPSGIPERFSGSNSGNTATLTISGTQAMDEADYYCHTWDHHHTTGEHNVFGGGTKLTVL",
    "koff [s⁻¹]": 0.00514
  }
]
